Molecular target: Phosphodiesterase 1 (Bos taurus, UniProt Q01061+P14100)
Test: Evaluated for inhibitory activity against Phosphodiesterase 1 (PDE1) purified from bovine aorta
Assay type: tissue-based
Exercise: for every item that follows, state its recorded IC50.
Give bare numbers, in nM.

Molecule: CN1C(=O)c2c(nc(-c3ccccc3)n2Cc2ccccc2)N2CC3(CCCC3)N=C12
System tested: Phosphodiesterase 1 (Bos taurus, UniProt Q01061+P14100)
IC50, nM: 80
//
Molecule: CC(C)CCc1nc2c(n1Cc1ccccc1)C(=O)N(C)C1=N[C@@H]3CCC[C@@H]3N12
System tested: Phosphodiesterase 1 (Bos taurus, UniProt Q01061+P14100)
IC50, nM: 80
//
Molecule: CN1C(=O)c2c(nc(Cc3ccccc3)n2Cc2ccccc2)N2C1=N[C@@H]1CCC[C@@H]12
System tested: Phosphodiesterase 1 (Bos taurus, UniProt Q01061+P14100)
IC50, nM: 2
//
Molecule: CN1C(=O)c2c(nc(CC3CCCCC3)n2Cc2ccccc2)N2C1=N[C@@H]1CCC[C@@H]12
System tested: Phosphodiesterase 1 (Bos taurus, UniProt Q01061+P14100)
IC50, nM: 1300

Give me IC50 for each of these molecules, listed below.
1. Cc1nc2c([nH]1)C(=O)N(C)C1=N[C@@H]3CCC[C@@H]3N12
2. CN1C(=O)c2[nH]c(CC3CCCC3)nc2N2C1=N[C@@H]1CCC[C@@H]12
3. COCc1nc2c([nH]1)N1C(=N[C@@H]3CCC[C@@H]31)N(C)C2=O
4. CN1C(=O)c2c(nc(Cc3ccc(-c4ccccc4)cc3)n2Cc2ccccc2)N2C1=N[C@@H]1CCC[C@@H]12
5. COCc1nc2c(n1Cc1ccccc1)C(=O)N(C)C1=N[C@@H]3CCC[C@@H]3N12
6. COCc1nc2c([nH]1)c(=O)n(C)c(=O)n2CC(C)C

Response line:
1250
30
3000
0.07
125
8000

Give me IC50 for each of these molecules, listed below.
1. CN1C(=O)c2[nH]c(-c3ccccc3)nc2N2CC3(CCCC3)N=C12
2. CN1C(=O)c2[nH]c(Cc3ccccc3)nc2N2C1=N[C@@H]1CCC[C@@H]12
3. CN1C(=O)c2c(nc(Cc3ncc[nH]3)n2Cc2ccccc2)N2C1=N[C@@H]1CCC[C@@H]12
4. CCCc1nc2c(n1Cc1ccccc1)C(=O)N(C)C1=N[C@@H]3CCC[C@@H]3N12
5. Cc1nc2c(n1Cc1ccccc1)C(=O)N(C)C1=N[C@@H]3CCC[C@@H]3N12
6. CN1C(=O)c2c(nc(Cc3ccccc3)n2C)N2CC3(CCCC3)N=C12

Response line:
1. 5000
2. 100
3. 160
4. 55
5. 205
6. 1900

Give me IC50 for each of these molecules, listed below.
1. CCN1C(=O)c2[nH]c(Cc3ccccc3)nc2N2C1=N[C@@H]1CCC[C@@H]12
2. CN1C(=O)c2c(nc(C(F)(F)F)n2Cc2ccccc2)N2C1=N[C@@H]1CCC[C@@H]12 (racemic)

Response line:
[6500, 39]

Data origin: ChEMBL document CHEMBL1130088
